assay.notes: Stability study: open-dish storage in constant temperature and humidity chambers, XRPD and purity check
Format: physicochemical
conditions: 25° C./60% RH

# compound, Time the form is stable when stored
records = [
    ("COc1cc(OC)c2c(=O)[nH]c(-c3cc(C)c(OCCO)c(C)c3)nc2c1 [Form CS1]", "at least 10 months"),
    ("COc1cc(OC)c2c(=O)[nH]c(-c3cc(C)c(OCCO)c(C)c3)nc2c1 [Form CS20]", "at least 2 weeks"),
    ("COc1cc(OC)c2c(=O)[nH]c(-c3cc(C)c(OCCO)c(C)c3)nc2c1 [Form CS4]", "at least 10 months"),
    ("COc1cc(OC)c2c(=O)[nH]c(-c3cc(C)c(OCCO)c(C)c3)nc2c1 [Form CS9]", "at least 10 months"),
    ("COc1cc(OC)c2c(=O)[nH]c(-c3cc(C)c(OCCO)c(C)c3)nc2c1 [Form CS8]", "at least 2 weeks"),
]

====

Listing of recorded Solubility SGF by entry.
assay.notes: Solubility study: saturated solutions in SGF and FeSSIF, concentration by HPLC
Assay type: physicochemical
conditions: SGF (simulated gastric fluids), equilibrated 24 h

# molecule, Solubility SGF / µg/mL
measured = [
    ("COc1cc(OC)c2c(=O)[nH]c(-c3cc(C)c(OCCO)c(C)c3)nc2c1 [Form CS9]", 370),
    ("COc1cc(OC)c2c(=O)[nH]c(-c3cc(C)c(OCCO)c(C)c3)nc2c1 [Form CS7]", 580),
    ("COc1cc(OC)c2c(=O)[nH]c(-c3cc(C)c(OCCO)c(C)c3)nc2c1 [Form CS13]", 330),
    ("COc1cc(OC)c2c(=O)[nH]c(-c3cc(C)c(OCCO)c(C)c3)nc2c1 [Form CS1]", 330),
    ("COc1cc(OC)c2c(=O)[nH]c(-c3cc(C)c(OCCO)c(C)c3)nc2c1 [Form CS4]", 380),
    ("COc1cc(OC)c2c(=O)[nH]c(-c3cc(C)c(OCCO)c(C)c3)nc2c1 [Form CS11]", 650),
    ("COc1cc(OC)c2c(=O)[nH]c(-c3cc(C)c(OCCO)c(C)c3)nc2c1 [Form CS20]", 510),
]

====

assay.notes: Solubility study: saturated solutions in SGF and FeSSIF, concentration by HPLC
Assay type: physicochemical
conditions: FeSSIF (fed state simulated intestinal fluids, pH=5.0), equilibrated 1 h
Protocol: High Performance Liquid Chromatography (HPLC) data in the present disclosure were collected from an Agilent 1260 with Diode Array Detector (DAD). The HPLC method parameters for purity test in the present disclosure are as follows: • 1. […] The prepared Form CS8 was suspended into SGF (simulated gastric fluids) and FeSSIF (fed state simulated intestinal fluids, pH=5.0) to obtain saturated solutions. After being equilibrated for 1 h, concentrations of the saturated solutions were measured by HPLC. […]

# compound, measurement.units, Solubility FeSSIF
rows = [
    ("COc1cc(OC)c2c(=O)[nH]c(-c3cc(C)c(OCCO)c(C)c3)nc2c1 [Form CS20]", "µg/mL", 190),
    ("COc1cc(OC)c2c(=O)[nH]c(-c3cc(C)c(OCCO)c(C)c3)nc2c1 [Form CS2]", "µg/mL", 150),
    ("COc1cc(OC)c2c(=O)[nH]c(-c3cc(C)c(OCCO)c(C)c3)nc2c1 [Form CS7]", "µg/mL", 190),
    ("COc1cc(OC)c2c(=O)[nH]c(-c3cc(C)c(OCCO)c(C)c3)nc2c1 [Form CS9]", "µg/mL", 170),
    ("COc1cc(OC)c2c(=O)[nH]c(-c3cc(C)c(OCCO)c(C)c3)nc2c1 [Form CS1]", "µg/mL", 140),
    ("COc1cc(OC)c2c(=O)[nH]c(-c3cc(C)c(OCCO)c(C)c3)nc2c1 [Form CS4]", "µg/mL", 140),
    ("COc1cc(OC)c2c(=O)[nH]c(-c3cc(C)c(OCCO)c(C)c3)nc2c1 [Form CS13]", "µg/mL", 130),
    ("COc1cc(OC)c2c(=O)[nH]c(-c3cc(C)c(OCCO)c(C)c3)nc2c1 [Form CS8]", "µg/mL", 280),
]
